Taken from PubChem BioAssay (NCI).

compounds and their reported TGI
# Test system: K-562 leukemia
# Experiment Notes: NCI tumour cell line growth inhibition, 48 h

- Compound: "CCOC(=O)[C@H]1Nc2ccccc2C2c3ccccc3CC21 (some centres undefined)"
  Experimental Target: "K-562 leukemia"
  TGI: "> 100 µM"
- Compound: "CCOC(=O)C1CCCCN1CCc1c[nH]c2ccccc12 (centres undefined)"
  Experimental Target: "K-562 leukemia"
  TGI: "> 100 µM"
- Compound: "O=c1[nH]c2ccccc2n1-c1n[nH]c2ccccc12"
  Experimental Target: "K-562 leukemia"
  TGI: "> 100 µM"
- Compound: "CCC(CC(C)C)Nc1ccc(NC(CC)CC(C)C)cc1 (centres undefined)"
  Experimental Target: "K-562 leukemia"
  TGI: "37.8 µM"
- Compound: "O=C(Nc1cccc(-n2cc(-c3ccncc3)c(-c3ccc(O)c(Cl)c3)n2)c1)c1cccc(C(F)(F)F)c1"
  Experimental Target: "K-562 leukemia"
  TGI: "> 100 µM"
- Compound: "COc1ccc2nc3n(c2c1)CCc1cc(OC)c(OC)cc1-3"
  Experimental Target: "K-562 leukemia"
  TGI: "> 100 µM"
- Compound: "Cc1csc(NC(=NCCN2CCOCC2)Nc2nc(C)cs2)n1"
  Experimental Target: "K-562 leukemia"
  TGI: "> 100 µM"
- Compound: "Cc1cc(Cl)cc2c1NC(=O)C2=O (tested in a mixture with another compound)"
  Experimental Target: "K-562 leukemia"
  TGI: "> 100 µM"
- Compound: "COc1cccc(C2NC(=S)NC(C)=C2C(=O)Nc2ccc(Cl)c(Cl)c2)c1 (centres undefined)"
  Experimental Target: "K-562 leukemia"
  TGI: "> 50 µM"
- Compound: "COC(=O)CC(C(C(C)=O)C(=O)OCc1ccccc1)N1C(=O)OCC1c1ccccc1 (centres undefined)"
  Experimental Target: "K-562 leukemia"
  TGI: "> 100 µM"
- Compound: "O=C1c2ccccc2C(=O)N1c1nc(-c2ccc(Cl)cc2)cc(N2N=C(c3ccc(Br)cc3)CC2c2ccccc2)n1 (centres undefined)"
  Experimental Target: "K-562 leukemia"
  TGI: "> 100 µM"
- Compound: "CC(=O)Nc1cc(Nc2cc(=O)[nH]c(=O)[nH]2)ccc1C"
  Experimental Target: "K-562 leukemia"
  TGI: "> 100 µM"
- Compound: "COc1ccc(C2CCc3cc4c(cc3/C2=N/OC(C)=O)OCO4)cc1OC (centres undefined)"
  Experimental Target: "K-562 leukemia"
  TGI: "> 100 µM"
- Compound: "c1ccc(-c2nnn(CCN3CCCCC3)n2)cc1"
  Experimental Target: "K-562 leukemia"
  TGI: "> 100 µM"
- Compound: "CC1CC[C@]2(C(=O)O)CCC3(C)C(=CCC4[C@@]5(C)CC[C@H](OS(=O)(=O)c6ccccc6)C(C)(C)C5CC[C@]43C)[C@@H]2[C@H]1C (some centres undefined)"
  Experimental Target: "K-562 leukemia"
  TGI: "> 100 µM"
- Compound: "C=C(C)[C@@H]1CC[C@]2(C(=O)O)CC[C@]3(C)[C@H](CCC4[C@@]5(C)CC[C@H](C(=O)/C=C/c6ccc(O)c(O)c6)C(C)(C)[C@@H]5CC[C@]43C)[C@@H]12 (some centres undefined)"
  Experimental Target: "K-562 leukemia"
  TGI: "> 100 µM"
- Compound: "CC1=C(C(=O)Nc2ccc(Cl)c(Cl)c2)C(c2ccccc2O)NC(=O)N1 (centres undefined)"
  Experimental Target: "K-562 leukemia"
  TGI: "> 50 µM"
- Compound: "CC1(C)CC[C@]2(C(N)=O)CC[C@]3(C)C(=CC[C@@H]4[C@@]5(C)C/C(=C/c6ccncc6)C(=O)C(C)(C)[C@@H]5CC[C@]43C)[C@@H]2C1"
  Experimental Target: "K-562 leukemia"
  TGI: "6.71 µM"
- Compound: "CCOC(=O)C1(C(F)(F)F)N=C(CC)OC(N2CCOCC2)=N1 (centres undefined)"
  Experimental Target: "K-562 leukemia"
  TGI: "> 100 µM"
- Compound: "CC(=O)N(Cc1ccccc1)c1ccccc1I(=O)=O"
  Experimental Target: "K-562 leukemia"
  TGI: "29.5 µM"
- Compound: "O=C1c2ccccc2C(=O)c2nc3ccc(Cl)cc3cc21"
  Experimental Target: "K-562 leukemia"
  TGI: "> 100 µM"
- Compound: "CC(=O)O[C@H]1CC[C@@]2(C)[C@H](CC[C@@H]3[C@@H]2CC[C@]2(C)[C@@H](c4ccc(=O)oc4)C[C@H]4O[C@]342)C1"
  Experimental Target: "K-562 leukemia"
  TGI: "13 µM"
- Compound: "C(/Cc1ccc2c(c1)OCO2)=N\\NC1=NCCCN1"
  Experimental Target: "K-562 leukemia"
  TGI: "> 100 µM"
- Compound: "CCCNc1ncnc2[nH]ncc12"
  Experimental Target: "K-562 leukemia"
  TGI: "> 100 µM"
- Compound: "CCOP(=O)(Nc1ccc2oc(=O)c3ccccc3c2c1)OCC"
  Experimental Target: "K-562 leukemia"
  TGI: "> 100 µM"
- Compound: "COc1ccc(C(O)CC(O)(C(F)(F)F)C(F)(F)F)cc1 (centres undefined)"
  Experimental Target: "K-562 leukemia"
  TGI: "53.6 µM"
- Compound: "COC(=O)c1c(C)nc(C)c(NO)c1-c1ccccc1C(F)(F)F"
  Experimental Target: "K-562 leukemia"
  TGI: "> 100 µM"
- Compound: "O=C1c2ccccc2-c2[nH]c3cn[nH]c(=O)c3c21"
  Experimental Target: "K-562 leukemia"
  TGI: "> 100 µM"
- Compound: "Nc1ccc(S(=O)(=O)Nc2cnc3c(Cl)cccc3n2)cc1"
  Experimental Target: "K-562 leukemia"
  TGI: "> 750 µM"
- Compound: "CNC(=O)CN(CC(N)=O)C(N)=O"
  Experimental Target: "K-562 leukemia"
  TGI: "> 100 µM"
- Compound: "COC(=O)C1=C(O)C(C(=O)OC)[C@]2(O)[C@H](C(=O)OC)[C@H]1C[C@@H](c1ccc([N+](=O)[O-])cc1)[C@H]2C(=O)OC (some centres undefined)"
  Experimental Target: "K-562 leukemia"
  TGI: "> 100 µM"
- Compound: "COc1cccc(NC(=O)C(=O)C(C(C)=O)c2nc3ccc(Cl)cc3[nH]c2=O)c1 (centres undefined)"
  Experimental Target: "K-562 leukemia"
  TGI: "> 100 µM"
- Compound: "CO[C@H]1C[C@H](O[C@H]2CC[C@]3(C=O)[C@H]4CC[C@]5(C)[C@@H](C6=CC(=O)OC6)CC[C@]5(O)[C@@H]4CC[C@]3(O)C2)O[C@H](C)[C@H]1O"
  Experimental Target: "K-562 leukemia"
  TGI: "1.35 µM"
- Compound: "Nc1ccc2c(c1)c(N)nn2C(=O)Nc1ccc(Cc2ccccc2)cc1"
  Experimental Target: "K-562 leukemia"
  TGI: "11.4 µM"
